- test protocol: Cytotoxicity against human HuH6 cells after 3 days by MTS/PMS method
- Format: cell-based

{"compound": "COCCN[P@@](=O)(OC[C@H]1O[C@@H](n2ccc(N)nc2=O)[C@H](O)[C@@H]1O)O[C@H]1[C@@H](OC)[C@H](n2cnc3c(=O)[nH]c(N)nc32)O[C@@H]1COP(=O)(O)O", "CC50 at 72 h": "> 65 µM"}
{"compound": "COCCN[P@@](=O)(OC[C@@H]1C[C@@H](O)[C@H](n2ccc(N)nc2=O)O1)O[C@H]1[C@@H](OC)[C@H](n2cnc3c(=O)[nH]c(N)nc32)O[C@@H]1COP(=O)(O)O", "CC50 at 72 h": "> 65 µM"}
{"compound": "CO[C@@H]1[C@H](OP(=O)(NCCCOP(=O)(O)O)OC[C@@H]2C[C@@H](O)[C@H](n3ccc(N)nc3=O)O2)[C@@H](COP(=O)(O)O)O[C@H]1n1cnc2c(=O)[nH]c(N)nc21 (stereo not given in full)", "CC50 at 72 h": "> 65 µM"}
{"compound": "COCCN[P@](=O)(OC[C@@H]1C[C@@H](O)[C@H](n2ccc(N)nc2=O)O1)O[C@H]1[C@@H](OC)[C@H](n2cnc3c(=O)[nH]c(N)nc32)O[C@@H]1COP(=O)(O)O", "CC50 at 72 h": "> 65 µM"}
{"compound": "COCCN[P@](=O)(OC[C@H]1O[C@@H](n2ccc(N)nc2=O)[C@H](O)[C@@H]1O)O[C@H]1[C@@H](OC)[C@H](n2cnc3c(=O)[nH]c(N)nc32)O[C@@H]1COP(=O)(O)O", "CC50 at 72 h": "> 65 µM"}
